System: AMPK
Experiment: Measurement of AMPK activity by Western blot in C2C12 cells
Format: cell-based
Set-up: key: fold increase in threonine-172 phosphorylation
Conditions: 10 μM for 50 minutes, no superscript: Western blot of serine-79 and threonine-172 phosphorylation
Parameter AMPK activity (degree of phosphorylation of serine-79 and threonine-172): see the listing below.
measurement-kind: AMPK activity (degree of phosphorylation of serine-79 and threonine-172)

{"molecule": "CC(C)CCNc1nc(-c2ccccc2)nc2ccccc12 [Compound 130]", "observed-value": 1.8}
{"molecule": "Fc1ccc(CNc2nc(-c3ccccc3)nc3ccccc23)c(F)c1 [Compound 134]", "observed-value": 1.8}
{"molecule": "Clc1ccccc1CNc1nc(-c2ccccc2)nc2ccccc12 [Compound 109]", "observed-value": 1.9}
{"molecule": "Brc1cccc(CNc2nc(-c3ccccc3)nc3ccccc23)c1 [Compound 153]", "observed-value": 1.3}
{"molecule": "Fc1ccc(F)c(CNc2nc(-c3ccccc3)nc3ccccc23)c1 [Compound 135]", "observed-value": 2.0}
{"molecule": "c1ccc2c(NCc3ccc4c(c3)OCO4)nc(C3CC3)nc2c1 [Compound 385]", "observed-value": 2.8}
{"molecule": "COc1ccc(CNc2ncnc3ccccc23)cc1OC [Compound 410]", "observed-value": 1.1}
{"molecule": "c1ccc2c(NCc3ccc4c(c3)OCO4)nc(N3CCCCC3)nc2c1 [Compound 308]", "observed-value": 2.2}
{"molecule": "COc1cccc(CNc2nc(N3CCN(C)CC3)nc3ccccc23)c1OC [Compound 290]", "observed-value": 1.0}
{"molecule": "CCCc1nc(NCc2cc(OC)c(OC)c(OC)c2)c2ccccc2n1 [Compound 400]", "observed-value": 0.4}
{"molecule": "FC(F)(F)c1ccc(CNc2nc(-c3ccccc3)nc3ccccc23)cc1 [Compound 139]", "observed-value": 2.1}
{"molecule": "COc1cc(CNc2nc(-c3ccccc3)nc3ccccc23)ccc1O [Compound 113]", "observed-value": 2.1}
{"molecule": "COc1ccc(OC)c(CNc2nc(N3CCN(C)CC3)nc3ccccc23)c1 [Compound 298]", "observed-value": 0.7}
{"molecule": "COc1cccc(CNc2nc(N3CCCC3)nc3ccccc23)c1OC [Compound 287]", "observed-value": 1.2}
{"molecule": "COc1ccc(OC)c(CNc2nc(C(C)c3ccccc3)nc3ccccc23)c1 (centres unmarked) [Compound 380]", "observed-value": 1.9}
{"molecule": "COc1ccc(CNc2nc(C(OC)c3ccccc3)nc3ccccc23)cc1 (centres unmarked) [Compound 362]", "observed-value": 2.6}
{"molecule": "Cc1ccc(CCNc2nc(-c3ccccc3)nc3ccccc23)cc1 [Compound 119]", "observed-value": 2.3}
{"molecule": "COc1ccc(CNc2nc(N3CCCC3)nc3ccccc23)c(OC)c1 [Compound 291]", "observed-value": 1.5}
{"molecule": "CCCc1nc(NCc2ccc(OC)c(OC)c2)c2ccccc2n1 [Compound 399]", "observed-value": 4.9}
{"molecule": "Cc1nc(NCc2ccccc2)c2ccccc2n1 [Compound 163, Benzyl-(2-methylquinazolino-4-yl)-amine]", "observed-value": 2.8}
{"molecule": "CC(CO)Nc1nc(-c2ccccc2)nc2ccccc12 (centres unmarked) [Compound 112]", "observed-value": 1.7}
{"molecule": "COc1ccccc1CNc1nc(N2CCOCC2)nc2ccccc12 [Compound 277]", "observed-value": 1.3}
{"molecule": "COc1ccc(CSc2nc(-c3ccccc3)nc3ccccc23)c(OC)c1 [Compound 274]", "observed-value": 1.9}
{"molecule": "c1ccc2c(NCc3ccc4c(c3)OCO4)ncnc2c1 [Compound 407]", "observed-value": 1.3}
{"molecule": "COc1cccc(CNc2nc(C3CC3)nc3ccccc23)c1OC [Compound 386]", "observed-value": 1.3}
{"molecule": "COc1cc(CNc2nc(N3CCCC3)nc3ccccc23)cc(OC)c1 [Compound 303]", "observed-value": 1.0}
{"molecule": "COc1cccc(CNc2nc(C3CCCCC3)nc3ccccc23)c1 [Compound 200]", "observed-value": 1.5}
{"molecule": "COc1cc(CNc2nc(N3CCN(C)CC3)nc3ccccc23)cc(OC)c1 [Compound 306]", "observed-value": 1.7}
{"molecule": "CC(C)c1nc(NCc2cccc3ccccc23)c2ccccc2n1 [Compound 181]", "observed-value": 3.1}
{"molecule": "COc1cccc(CNc2nc(N3CCCCC3)nc3ccccc23)c1 [Compound 280]", "observed-value": 1.2}
{"molecule": "Clc1ccccc1CCNc1nc(-c2ccccc2)nc2ccccc12 [Compound 151]", "observed-value": 1.8}
{"molecule": "Cc1nc(NCc2cccc(C(F)(F)F)c2)c2ccccc2n1 [Compound 166]", "observed-value": 3.8}
{"molecule": "COc1cc(CNc2nc(C(C)c3ccccc3)nc3ccccc23)cc(OC)c1OC (centres unmarked) [Compound 378]", "observed-value": 4.7}
{"molecule": "CCOc1nc(NCc2ccc3c(c2)OCO3)c2ccccc2n1 [Compound 320]", "observed-value": 0.9}
{"molecule": "COc1ccc(OC)c(CNc2nc(-c3cccs3)nc3ccccc23)c1 [Compound 358]", "observed-value": 0.8}
{"molecule": "CC(C)c1nc(NCCc2cccc(F)c2)c2ccccc2n1 [Compound 184]", "observed-value": 1.9}
{"molecule": "c1ccc(-c2nc(NCc3ccccn3)c3ccccc3n2)cc1 [Compound 142]", "observed-value": 1.4}
{"molecule": "COc1cccc(CNc2nc(-c3cccs3)nc3ccccc23)c1 [Compound 350]", "observed-value": 0.6}
